Every entry's value here was drawn from patent US6281214A.

Molecular target: adrenergic α1 receptor
Assay: adrenergic α1 receptor binding test ([3H] Prazosin Binding Test)
Design: species or system SD rats
Conditions: 1 nM [3H] Prazosin, rat cortex, room temperature, 60 minutes; hydrochloride
Structures can show the parent of a compound that is named as a salt.
measured metric: Ki (nM)
Provide the reading as a plain figure in nM.

# input # lookup: Ki of CCCS(=O)(=O)Nc1cc(N2CCN(CC)CC2)cc(-c2ccccc2C)c1Cl [Example 17, hydrochloride]
# output 550

###

Please consider the recorded Ki for serotonin S2 receptor (Rattus norvegicus) in what follows.
Where a name gives a salt, the structure may show the parent alone.

Examples with their reported Ki follow.
{"molecule": "CCCc1cc(-c2ccccc2)cc(N2CCN(CC)CC2)c1OC", "endpoint result": "21.1 nM"}
{"molecule": "CCN1CCN(c2cc(-c3ccccc3)c(OC)c([S+](C)[O-])c2)CC1 (stereo not drawn)", "endpoint result": "24.5 nM"}
{"molecule": "CCCc1cc(N2CCN(CC)CC2)cc(-c2ccccc2F)c1OC", "endpoint result": "66.2 nM"}
{"molecule": "CCCS(=O)(=O)c1cc(N2CCN(C)CC2)cc(-c2ccc(F)cc2)c1OC", "endpoint result": "1.61 nM"}
{"molecule": "CCN1CCN(c2ccc(OC(C)C)c(-c3ccccc3)c2)CC1", "endpoint result": "> 1000 nM"}

# input // fetch serotonin S2 receptor (Rattus norvegicus) Ki for CCc1ccccc1-c1cc(N2CCN(CCO)CC2)cc(C(F)CC)c1Cl (stereo not drawn)
# output 30.1 nM

# input // fetch serotonin S2 receptor (Rattus norvegicus) Ki for CCN1CCN(c2cc(NS(=O)(=O)c3ccccc3)c(OC)c(-c3ccccc3)c2)CC1
# output 17.4 nM

# input // fetch serotonin S2 receptor (Rattus norvegicus) Ki for CCCS(=O)(=O)Nc1cc(N2CCN(CC)CC2)cc(-c2ccccc2C)c1Cl [Example 17, hydrochloride]
# output 374 nM

# input // fetch serotonin S2 receptor (Rattus norvegicus) Ki for CCC(F)c1cc(N2CCN(CC)CC2)cc(-c2ccccc2CF)c1Cl (stereo not drawn)
# output 16.1 nM

###

Target: dopamine D2 receptor (Rattus norvegicus, UniProt P61169)
Construct: the receptor fraction prepared from the corpus striatum was molten and suspended; from tissue; host or cells: corpus striatum of SD rats (membrane fraction)
Sequence (P61169 whole entry): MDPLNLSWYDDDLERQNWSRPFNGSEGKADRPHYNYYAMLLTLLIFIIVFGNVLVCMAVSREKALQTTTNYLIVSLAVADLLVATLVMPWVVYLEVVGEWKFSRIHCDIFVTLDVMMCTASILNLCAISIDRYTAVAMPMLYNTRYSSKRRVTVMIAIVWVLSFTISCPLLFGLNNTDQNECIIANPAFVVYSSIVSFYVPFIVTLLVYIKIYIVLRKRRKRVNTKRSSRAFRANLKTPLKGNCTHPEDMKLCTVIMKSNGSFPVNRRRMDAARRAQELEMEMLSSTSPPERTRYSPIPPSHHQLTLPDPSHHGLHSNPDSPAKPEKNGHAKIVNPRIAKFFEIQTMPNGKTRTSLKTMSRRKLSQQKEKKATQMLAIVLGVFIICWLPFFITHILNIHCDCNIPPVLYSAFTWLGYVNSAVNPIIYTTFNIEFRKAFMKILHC
Test: dopamine D2 receptor binding test ([3H] Spiperone Binding Test)
Design: species or system SD rats
Conditions: 1 nM [3H] Spiperone, rat corpus striatum, room temperature, 60 minutes; read-out: Ki value, dopamine D2 receptor
The following compounds are shown together with reported Ki values.
Provide the reading as a plain figure in nM.

Examples with their reported Ki follow.
{"compound": "CC(C)S(=O)(=O)Nc1cc(N2CCN(C)CC2)cc(-c2ccccc2Cl)c1Cl", "system under test": "dopamine D2 receptor (Rattus norvegicus, UniProt P61169)", "unit name": "nM", "Ki": 2.34}
{"compound": "CCCS(=O)(=O)c1cc(N2CCN(CC)CC2)cc(-c2ccccc2)c1OC", "system under test": "dopamine D2 receptor (Rattus norvegicus, UniProt P61169)", "unit name": "nM", "Ki": 34.2}
{"compound": "C/C=C/c1cc(N2CCN(CC)CC2)cc(-c2ccccc2Cl)c1Cl", "system under test": "dopamine D2 receptor (Rattus norvegicus, UniProt P61169)", "unit name": "nM", "Ki": 14.4}
{"compound": "CCC(F)c1cc(N2CCN(CC)CC2)cc(-c2ccccc2OC)c1Cl (stereo not drawn)", "system under test": "dopamine D2 receptor (Rattus norvegicus, UniProt P61169)", "unit name": "nM", "Ki": 16.9}
{"compound": "COc1c(C(=O)Cc2ccccc2)cc(N2CCNCC2)cc1-c1ccccc1", "system under test": "dopamine D2 receptor (Rattus norvegicus, UniProt P61169)", "unit name": "nM", "Ki": 101}
{"compound": "CCCS(=O)(=O)c1cc(N2CCN(CC)CC2)cc(-c2ccccc2)c1Cl", "system under test": "dopamine D2 receptor (Rattus norvegicus, UniProt P61169)", "unit name": "nM", "Ki": 1.65}
{"compound": "CCN1CCN(c2cc(CCF)c(OC)c(-c3ccccc3)c2)CC1", "system under test": "dopamine D2 receptor (Rattus norvegicus, UniProt P61169)", "unit name": "nM", "Ki": 50.1}
{"compound": "CCC(F)c1cc(N2CCN(CC)CC2)cc(-c2ccc(F)cc2C)c1Cl (stereo not drawn)", "system under test": "dopamine D2 receptor (Rattus norvegicus, UniProt P61169)", "unit name": "nM", "Ki": 1.77}
{"compound": "CCC(=O)c1cc(N2CCN(CC)CC2)cc(-c2ccccc2)c1OC", "system under test": "dopamine D2 receptor (Rattus norvegicus, UniProt P61169)", "unit name": "nM", "Ki": 39.1}
{"compound": "CCN1CCN(c2cc(-c3ccccc3C)c(Cl)c(C3SCCCS3)c2)CC1", "system under test": "dopamine D2 receptor (Rattus norvegicus, UniProt P61169)", "unit name": "nM", "Ki": 40.4}

# input # lookup: Ki of CCN1CCN(c2cc(NS(=O)(=O)CC)c(Cl)c(-c3ccccc3Cl)c2)CC1
# output 0.69

# input # lookup: Ki of CCN1CCN(c2cc(-c3ccccc3)c(OC)c(C(C)(C)F)c2)CC1
# output 10.5

# input # lookup: Ki of CCS(=O)(=O)c1cc(N2CCN(Cc3ccccn3)CC2)cc(-c2ccc(F)cc2)c1OC
# output 51.5

# input # lookup: Ki of CCC(F)c1cc(N2CCN(CC)CC2)cc(-c2c(C)cccc2C)c1Cl (stereo not drawn)
# output 2.28

# input # lookup: Ki of CCC(F)c1cc(N2CCN(CC)CC2)cc(-c2ccc(F)cc2Cl)c1Cl (stereo not drawn)
# output 1.39

# input # lookup: Ki of CC[C@@H](F)c1cc(N2CCN(CCO)CC2)cc(-c2ccc(F)cc2C)c1Cl
# output 6.61

# input # lookup: Ki of CCN1CCN(c2cc(-c3ccccc3)c(OC)c(C3CCCO3)c2)CC1 (stereo not drawn)
# output 104

# input # lookup: Ki of CCN1CCN(c2cc(CCCOC)c(OC)c(-c3ccccc3)c2)CC1
# output 35.1
